# target-or-system: flavoprotein EpiD (Staphylococcus epidermidis)
# Construct: made in house; host or cells: E. coli K38 (pGP1-2, pT7-5epiD)
# Sequence (P30197 whole entry): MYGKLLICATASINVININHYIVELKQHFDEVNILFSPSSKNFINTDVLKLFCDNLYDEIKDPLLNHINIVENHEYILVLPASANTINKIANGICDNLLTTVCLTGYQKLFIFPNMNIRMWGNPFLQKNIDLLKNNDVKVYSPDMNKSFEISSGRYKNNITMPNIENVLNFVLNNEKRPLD
# protocol: EpiD enzyme assay, oxidative decarboxylation of single peptides (reversed phase chromatography, ES-MS)
# Format: biochemical, Staphylococcus epidermis
# applied-conditions: single peptides
Non-standard residues stand in square brackets, D forms with d. No end group written: not given here. hCys = N[C@@H](CCS)C(=O)O
measured-metric: substrate of EpiD / reaction with EpiD (in words)

SFNSYCHCy (SFNSYC[hCys]; cysteine pairing not given here) [peptide SFNSYC with COOH-terminal homocysteine residue]    not substrates of EpiD
SFNSYCC--NH2 (SFNSYCC-NH2; cysteine pairing not given here) [the amide of SFNSYCC]    not substrates of EpiD
